System: XIP peptide (Xip251-270) binding
Test: small-molecule binders of XIP peptide, primary screen, biochemical, small-molecule microarray, fluorescence 635/667 nm, 0.1 µg/mL protein (AID 1182)
Conditions: fluorescent protein binding, 635 nm, higher = more signal, called active from +8 up or from −8 down
The source made the active and inactive calls.
For each record, write down the corresponding composite z-score.

Enquiry: Find the measured composite z-score: item "NCCCCCNC(=O)[C@@H]1C[C@@H]2C(=O)NCC(=O)N2[C@@H]1c1ccc(O)cc1" , target or system XIP peptide (Xip251-270) binding.
Return: 0.715 (inactive)

Enquiry: Please tell me: composite z-score of OC([C@@H]1CC(c2ccccc2)=NO1)[C@H]1CC(c2ccccc2)=NO1 (some centres undefined) , system XIP peptide (Xip251-270) binding?
Return: 0.267 (inactive)

Enquiry: Provide the documented composite z-score with XIP peptide (Xip251-270) binding as the system for O=C1NC(=O)C2C1C=CC(C(O)Cc1ccccc1)N2Nc1ccc(Cl)cc1Cl (centres undefined)
Return: 0.0966 (inactive)

Enquiry: Write down the reported composite z-score of "C=CCNC(=O)[C@@H]1[C@H]2C(=O)O[C@H](c3ccccc3)[C@H](c3ccccc3)N2[C@H](c2ccccc2OCCO)[C@@]12C(=O)N(C(=O)OCCOC)c1ccc(C#CCNC(N)=O)cc12" , test system: XIP peptide (Xip251-270) binding.
Return: 0.347 (inactive)

----------
Record form. Attribute: composite z-score. Fill in for each entry.
Target: Epidermal growth factor receptor (Homo sapiens)
Assay: EGFR binders on small-molecule microarrays, primary screen, biochemical, small-molecule microarray, 635 nm fluorescence (AID 1104);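 note: score merges 667 nm emission intensity with spot signal to noise over triplicate slides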
Details: EGFR binding, higher = more signal
The reply should be a number, written without any unit.

Enquiry: Requested read-out: composite z-score. Entry: "C=CC[C@@]1(C(=O)N(C)C)N=C(c2ccc(OCCCO)cc2)O[C@@H]1c1ccccc1N=[N+]=[N-]"
Return: 0.145

Enquiry: Which value of composite z-score has been reported for "CCOC(=O)C[C@H]1[C@H](OC(=O)Cc2ccc3c(c2)OCO3)[C@@H](NC(=O)c2ccc3ccccc3c2)c2cc(OCCCO)ccc2N1C(=O)c1ccccc1" in the records?
Return: 0.188

Enquiry: Dear colleague, I am looking for the recorded composite z-score of the following compound: "C=C(CCCC)C(=O)CC[C@H](OC(C)=O)c1cccc(OCCO)c1"
Return: -0.961

Enquiry: Which composite z-score value belongs to "Cc1ccc(S[C@]2(C(=O)NC(C)C)CC(=O)N(Cc3ccccc3Cl)[C@@H]2c2ccc(CO)cc2I)cc1" ?
Return: -1.51

Enquiry: For "C#CCNC(=O)[C@H](Cc1ccccc1)NC(=O)CCC(=O)O" , what is its reported composite z-score?
Return: -0.659

Enquiry: Entry under review: CCOC(=O)C1=CCC(c2ccccc2)N(S(=O)(=O)CC[Si](C)(C)C)C1 (stereo not drawn) . Reported composite z-score?
Return: -0.458

Enquiry: Please give the measured composite z-score for this compound: "CCOC(=O)C[C@H]1[C@H](OC(=O)Cc2ccc3c(c2)OCO3)[C@@H](NC(=O)c2ccc(-c3ccccc3)cc2)c2cc(OCCCO)ccc2N1C(=O)c1ccc2ccccc2n1"
Return: 0.468

Enquiry: Which composite z-score value is on record for "C=CC[C@]1(C(=O)NCCCOC)N=C(c2ccc(OCCCO)cc2)O[C@H]1c1ccccc1N=[N+]=[N-]" ?
Return: -0.223

----------
Provide the reported z-score of each item.
Assay: inhibitors of hydroxyurea-induced Chk1 phosphorylation, primary screen, imaging, HeLa, phospho-Chk1 nuclear intensity (AID 1187)
Conditions: hydroxyurea-induced phospho-Chk1 immunofluorescence imaging, higher = more signal
No unit in the answer, only the number.

Enquiry: Return reported z-score; argument: COc1ccc(C(O)C2C=CC3C(=O)N(C)C(=O)C3N2N2CCCCC2)c2ccccc12 (configuration not stated)
Return: 0.312

Enquiry: Given the entry "CC(C)(C)OC(=O)CC[C@]12N=C(c3ccc(OCCCO)cc3)O[C@H]1c1ccccc1N(CCS(=O)(=O)c1ccccc1)C2=O" , report its measured z-score.
Return: -0.249

Enquiry: # query: z-score of entry "COc1cc2c(cc1O)C=[N+](Cc1cccc(OC(F)(F)F)c1)CC2"
Return: -0.707

Enquiry: Consider the molecule Cc1ccc(C(C)CC(O)C2C=CC3C(=O)N(c4ccccc4)C(=O)C3N2Nc2ccc([N+](=O)[O-])cc2)o1 (configuration not stated) and give its measured z-score.
Return: 0.568

Enquiry: Form field: reported z-score of "COC(=O)[C@@]1(Cc2ccccc2)[C@H]2c3cc(C(=O)N4CCCC4)n(CC4CC4)c3C[C@H]2CN1C(=O)c1ccccc1"
Return: 0.76

Enquiry: Look at this molecule and give its reported z-score. "C=CCN1C(=O)[C@]2(O[C@H](CCO)[C@@H]([Si](C)(C)c3ccc(OC)cc3)[C@@H]2C)c2cc(N3C(=O)c4cccc5cccc3c45)ccc21"
Return: -1.91

Enquiry: z-score lookup needed for "[N-]=[N+]=NCc1ccccc1C[C@]1(C(=O)N2CCOCC2)N=C(c2ccc(OCCCO)cc2)O[C@H]1c1ccccc1N=[N+]=[N-]" , thanks.
Return: -0.635

----------
Tested on: glycogen synthase kinase-3 (GSK3A per assay name; protocol says GSK3B)
Experiment: GSK3 binders on small-molecule microarrays, primary screen, biochemical, small-molecule microarray, 635 nm fluorescence, GSK3A (AID 1103); note: the record names both GSK3A and GSK3B
Conditions: small-molecule microarray binding, fluorescence 635 nm; higher = more signal
attribute-measured: composite z-score
Quick one: just the number, no unit, thanks!

Enquiry: If you can, please state the reported composite z-score value of "CCCC=C(CCC)[C@@H](NC(=O)Oc1ccc(F)cc1)c1ccc(C(=O)OC)cc1" .
Return: -0.102

Enquiry: What value of composite z-score has been recorded for this entry: "Cc1ccc(S[C@]2(C(=O)NCC(C)C)CC(=O)N(Cc3cc(C(F)(F)F)cc(C(F)(F)F)c3)[C@@H]2c2ccc(CO)cc2I)cc1"
Return: -1.16

Enquiry: // composite z-score lookup, key: CC(C)C[C@H]1NC(=O)[C@@]23C(=O)N[C@@H](Cc4ccccc4)C2[C@H](C)[C@@]2(C)O[C@H]2C3/C=C/C/C=C\CNC(=O)[C@H](Cc2ccccc2)NC1=O (stereo not given in full)
Return: 0.47

Enquiry: Record request: composite z-score value, item CCCCCC1=C2CNC(CCC)(C(=O)OC)C=C2C(C)C1=O (stereo not given)
Return: -0.111

Enquiry: Quick one: composite z-score of "C=CCOC(=O)[C@@H]1[C@H]2C(=O)O[C@H](c3ccccc3)[C@H](c3ccccc3)N2[C@H](c2ccc(OCCOC(=O)[C@@H]3C[C@@H]4C(=O)N[C@@H](CCCC[N+](C)(C)C)C(=O)N4[C@@H]3c3cccc(OCCO)c3)cc2)[C@@]12C(=O)Nc1ccc(I)cc12" ?
Return: 1.19

Enquiry: For the molecule shown here, "CCOC(=O)C=Cc1cc([N+](=O)[O-])ccc1O" , give the reported composite z-score.
Return: -0.398

Enquiry: Query (molecule): "C=CC[C@]12N=C(c3ccc(OCCCO)cc3)O[C@H]1c1ccccc1N(Cc1ccccc1)C2=O" ; field requested: composite z-score
Return: 0.524

Enquiry: Record request: composite z-score value, item "O=C1O[C@H](c2ccccc2)[C@H](c2ccccc2)N2[C@H]1[C@@H](C(=O)NC[C@H](O)c1ccccc1)[C@]1(C(=O)Nc3ccccc31)[C@H]2c1ccc(OCCO)cc1"
Return: 1.23

Enquiry: May I ask what composite z-score has been recorded for "COc1ccc(C#Cc2ccc3c(c2)[C@]2(C(=O)N3)[C@H](c3ccccc3OCCO)N3[C@H](c4ccccc4)[C@H](c4ccccc4)OC(=O)[C@H]3[C@@H]2C(=O)O)cc1" ?
Return: 1.21

Enquiry: Which composite z-score reading was recorded for the molecule CCC(CC)C(O)C1C=CC2C(=O)N(C)C(=O)C2N1Nc1ccccc1 (stereo not given) ?
Return: 0.499

Enquiry: Bench note: what composite z-score did "COC(=O)[C@@]1(Cc2ccc(OC)cc2)[C@H]2c3cc(C(=O)N(C)C)n(Cc4cccc5ccccc45)c3C[C@H]2CN1C(=O)c1ccccc1" show?
Return: 0.329

Enquiry: // composite z-score lookup, key: CC1(C)[C@@H]2CC(C(O)C3C=CC4C(=O)N(c5ccccc5)C(=O)C4N3Nc3ccccc3)=C[C@H]1C2 (stereo not given in full)
Return: 0.33

Enquiry: Item COc1cc2c(cc1O)C(C1CC1)N(Cc1cc3c(cc1Br)OCO3)CC2 (stereo not given) has what recorded composite z-score?
Return: -1.26

Enquiry: Can you look up the measured composite z-score of COc1ccc(C(O)C2C=CC3C(=O)N(C)C(=O)C3N2N2CCCCC2)c2ccccc12 (stereo not given) for me?
Return: 1.29

Enquiry: I'd like to know its composite z-score. The molecule in question is "CN(C)CCCNC(=O)[C@@]1(C)c2ccccc2C(=O)N(Cc2cc(F)cc(C(F)(F)F)c2)[C@H]1c1ccc(CO)cc1"
Return: -0.465
